I'd appreciate it if you could supply 5-HT2C BRET Eff % values for the items below.
Target: 5-HT2C receptor (Homo sapiens, UniProt P28335)
Construct: expressed in transfected cells; host or cells: HEK293T
Sequence (P28335 33-458): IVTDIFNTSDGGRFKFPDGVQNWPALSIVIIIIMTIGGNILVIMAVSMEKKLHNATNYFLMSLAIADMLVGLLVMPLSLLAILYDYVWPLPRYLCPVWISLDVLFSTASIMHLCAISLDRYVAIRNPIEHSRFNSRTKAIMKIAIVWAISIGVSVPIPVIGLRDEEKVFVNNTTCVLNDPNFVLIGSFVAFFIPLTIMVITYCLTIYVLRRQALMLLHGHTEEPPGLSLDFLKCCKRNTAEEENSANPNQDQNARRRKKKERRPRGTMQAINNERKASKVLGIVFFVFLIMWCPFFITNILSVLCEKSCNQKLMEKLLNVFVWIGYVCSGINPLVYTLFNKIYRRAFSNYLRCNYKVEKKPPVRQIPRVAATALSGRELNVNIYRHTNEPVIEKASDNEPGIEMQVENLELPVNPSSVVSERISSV
Test: cell-based
Give bare numbers, in %.

compound="COc1ccc(C)c2[nH]cc(CCN(C)C)c12 [Compound 26]" readout_units=% reading=113
compound="COc1cc(F)c(C)c2[nH]cc(CCN(C)C)c12 [Compound 34]" readout_units=% reading=94
compound="CCN(C)CCc1c[nH]c2c(C)ccc(O)c12 [Compound 14]" readout_units=% reading=108
compound="CC(C)c1ccc(O)c2c(CCN(C)C)c[nH]c12 [Compound 10]" readout_units=% reading=60

Please state 5-HT2C BRET Eff % for every compound in the list that follows.
1. CCc1ccc(O)c2c(CCN(C)C)c[nH]c12 [Compound 9]
2. Cc1cc(O)c2c(CCN(C)C)c[nH]c2c1 [Compound 37]
3. CN(C)CCc1c[nH]c2cc(F)cc(O)c12 [Compound 36]
4. Cc1ccc(OP(=O)(O)O)c2c(CCN(C)C)c[nH]c12 [Compound 24]
5. Cc1ccc(O)c2c(CCN(C)C3CC3)c[nH]c12 [Compound 17]

[67, 95, 93, 69, 111]

Tested on 5-HT2C receptor (Homo sapiens, UniProt P28335): Cc1ccc(O)c2c(CCN(C)C(C)C)c[nH]c12 [Compound 16] . Observed 5-HT2C BRET Eff %: 103

----------
Target: 5-HT2B receptor (Homo sapiens, UniProt P41595)
Construct: expressed in transfected cells; host or cells: HEK293T
Sequence (P41595 whole entry): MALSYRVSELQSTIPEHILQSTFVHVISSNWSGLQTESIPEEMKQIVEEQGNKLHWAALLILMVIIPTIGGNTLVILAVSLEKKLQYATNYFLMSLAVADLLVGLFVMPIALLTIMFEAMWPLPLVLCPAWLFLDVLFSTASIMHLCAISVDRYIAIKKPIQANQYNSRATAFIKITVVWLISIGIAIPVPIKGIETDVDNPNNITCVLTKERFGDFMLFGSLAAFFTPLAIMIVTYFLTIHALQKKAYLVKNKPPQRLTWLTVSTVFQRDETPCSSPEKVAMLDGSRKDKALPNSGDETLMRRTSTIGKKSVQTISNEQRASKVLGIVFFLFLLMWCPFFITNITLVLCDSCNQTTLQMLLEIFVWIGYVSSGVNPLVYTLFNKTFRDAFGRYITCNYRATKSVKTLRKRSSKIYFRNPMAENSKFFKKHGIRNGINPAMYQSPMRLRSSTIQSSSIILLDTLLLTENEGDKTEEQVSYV
Test: Serotonin receptor 5-HT2 functional assay (Gq dissociation BRET or Gq-dependent calcium flux), 5-HT2B
Assay type: cell-based
Conditions: 5-HT2B EC50 (nM), Table 5; 5-HT2B receptor; compared with psilocin
Measurement Type: EC50

Tested on 5-HT2B receptor (Homo sapiens, UniProt P41595): Cc1ccc(O)c2c(CCN(C)C)c[nH]c12 [drawing 38] . Observed EC50: 3.6 nM

----------
Biological target: 5-HT2A receptor (Homo sapiens, UniProt P28223)
Construct: expressed in transfected cells; host or cells: HEK293T
Sequence (P28223 whole entry): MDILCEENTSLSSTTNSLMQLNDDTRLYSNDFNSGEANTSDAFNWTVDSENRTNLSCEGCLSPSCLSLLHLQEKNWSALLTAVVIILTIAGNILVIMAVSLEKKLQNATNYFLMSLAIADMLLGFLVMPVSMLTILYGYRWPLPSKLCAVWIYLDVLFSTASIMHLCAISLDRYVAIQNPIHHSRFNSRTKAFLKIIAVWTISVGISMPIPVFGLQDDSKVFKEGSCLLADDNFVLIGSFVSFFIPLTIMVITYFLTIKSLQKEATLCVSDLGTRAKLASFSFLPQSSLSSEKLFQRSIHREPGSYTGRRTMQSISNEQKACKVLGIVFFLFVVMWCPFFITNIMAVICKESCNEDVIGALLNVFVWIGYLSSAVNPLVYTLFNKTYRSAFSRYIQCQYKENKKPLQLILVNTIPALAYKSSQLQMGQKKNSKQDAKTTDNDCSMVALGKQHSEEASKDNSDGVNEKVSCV
Assay: Serotonin receptor 5-HT2 functional assay (Gq dissociation BRET or Gq-dependent calcium flux), 5-HT2A
Assay type: cell-based
Settings: Table 4; efficacy relative to 4-hydroxytryptamine; at least three replicate trials
Where a name gives a salt, the structure may show the parent alone.
I'd appreciate it if you could supply 5-HT2A BRET Eff % values for the items below.

compound="CC(C)c1ccc(O)c2c(CCN(C)C)cn(C)c12 [Compound 11]" measurement_type="5-HT2A BRET Eff %" reading=66%
compound="Cc1ccc(O)c2c(C[C@H]3CCN3C)c[nH]c12 [Compound 77]" measurement_type="5-HT2A BRET Eff %" reading=69%
compound="CN(C)CCc1cn2c3c(cccc13)OCC2 [Compound 135, Hydrochloride]" measurement_type="5-HT2A BRET Eff %" reading=76%
compound="Cc1ccc(O)c2c(CCN(C)C3CC3)c[nH]c12 [Compound 17]" measurement_type="5-HT2A BRET Eff %" reading=54%

Shift focus to the following entry.
Tested on 5-HT2A receptor (Homo sapiens, UniProt P28223): NCCc1c[nH]c2cccc(O)c12 [4-hydroxytryptamine, reference compound] . Observed 5-HT2A BRET Eff %: 100%

----------
Biological target: 5-HT2C receptor (Homo sapiens)
Construct: expressed in transfected cells; host or cells: HEK293T
Experiment: cell-based
Binarize 5-HT2C BRET Eff % at 90%; below is YES, at or above is NO.

Before answering, review these 3 worked examples.
compound="Cc1ccc(O)c2c(CCN(C)C)c[nH]c12 [Compound 1]" category=YES
compound="CN(C)CCc1c[nH]c2c(CCF)ccc(O)c12 [Compound 8]" category=YES
compound="CN(C)CCc1c[nH]c2c(C#N)ccc(O)c12 [Compound 64]" category=YES

Consider the compound Cc1c(F)cc(O)c2c(CCN(C)C)c[nH]c12 [Compound 33] . Is its 5-HT2C BRET Eff % strictly less than 90%?
NO

Consider the compound NCCc1c[nH]c2cccc(O)c12 [4-hydroxytryptamine, reference compound] . Is its 5-HT2C BRET Eff % strictly less than 90%?
NO

----------
Target: 5-HT2B receptor (Homo sapiens, UniProt P41595)
Construct: expressed in transfected cells; host or cells: HEK293T
Test: Serotonin receptor 5-HT2 functional assay (Gq dissociation BRET or Gq-dependent calcium flux), 5-HT2B
Format: cell-based
Conditions: Table 4; efficacy relative to 4-hydroxytryptamine; at least three replicate trials
Measurement Type: 5-HT2B BRET Eff %

compound="CN(C)CCc1c[nH]c2c(C(N)=O)ccc(O)c12 [Compound 65]" measurement_type="5-HT2B BRET Eff %" reading=inactive
compound="Cc1ccc(O)c2c(CCN(C)C3CC3)c[nH]c12 [Compound 17]" measurement_type="5-HT2B BRET Eff %" reading=inactive
compound="CN(C)CCc1c[nH]c2c(C#N)ccc(O)c12 [Compound 64]" measurement_type="5-HT2B BRET Eff %" reading=inactive

----------
I'd appreciate it if you could supply 5-HT2A BRET Eff % values for the items below.
Molecular target: 5-HT2A receptor (Homo sapiens, UniProt P28223)
Construct: expressed in transfected cells; host or cells: HEK293T
Test: Serotonin receptor 5-HT2 functional assay (Gq dissociation BRET or Gq-dependent calcium flux), 5-HT2A
Type: cell-based
Details: Table 4; efficacy relative to 4-hydroxytryptamine; at least three replicate trials
Give bare numbers, in %.

# annotated cases, reported 5-HT2A BRET Eff % shown
compound="Cc1cccc2c(CCN(C)C)c[nH]c12 [7,N,N-TMT]" tested_system="5-HT2A receptor (Homo sapiens, UniProt P28223)" readout_units=% reading=80
compound="CCc1ccc(O)c2c(CCN(C)C)c[nH]c12 [Compound 9]" tested_system="5-HT2A receptor (Homo sapiens, UniProt P28223)" readout_units=% reading=78

Shift focus to the following entry.
Given item Cc1c(F)cc(O)c2c(CCN(C)C)c[nH]c12 [Compound 33] , the value recorded as its 5-HT2A BRET Eff % is 78

FYI, the data here is from patent US20250059217A1.
